Tested on: Candida albicans
protocolDescription: Antifungal activity against Candida albicans ATCC 50193 incubated for 24 hrs by microdilution method
Assay type: functional
MIC values by entry

smilesStr: CCCCCCCCn1nnc(-c2n[nH]c(=S)n2-c2ccccc2)c1-c1n[nH]c(=S)n1-c1ccccc1
experimentalTarget: Candida albicans
MIC: 2 µg/mL

smilesStr: CCCCCCCCCCCCCCn1nnc(-c2n[nH]c(=S)n2N)c1-c1n[nH]c(=S)n1N
experimentalTarget: Candida albicans
MIC: 1 µg/mL

smilesStr: CCCCCCCCn1nnc(-c2n[nH]c(=S)n2N)c1-c1n[nH]c(=S)n1N
experimentalTarget: Candida albicans
MIC: 1 µg/mL

smilesStr: CCCCCCCCCCCCCCn1nnc(-c2n[nH]c(=S)n2-c2ccccc2)c1-c1n[nH]c(=S)n1-c1ccccc1
experimentalTarget: Candida albicans
MIC: 2 µg/mL

smilesStr: CCCCCCCCCCCCn1nnc(-c2n[nH]c(=S)n2-c2ccccc2)c1-c1n[nH]c(=S)n1-c1ccccc1
experimentalTarget: Candida albicans
MIC: 2 µg/mL

smilesStr: CCCCCCCCCCCCn1nnc(-c2n[nH]c(=S)n2N)c1-c1n[nH]c(=S)n1N
experimentalTarget: Candida albicans
MIC: 1 µg/mL

smilesStr: CCCCCCCCCCn1nnc(-c2n[nH]c(=S)n2-c2ccccc2)c1-c1n[nH]c(=S)n1-c1ccccc1
experimentalTarget: Candida albicans
MIC: 2 µg/mL

smilesStr: OC(Cn1cncn1)(Cn1cncn1)c1ccc(F)cc1F
experimentalTarget: Candida albicans
MIC: 1 µg/mL

smilesStr: CCCCCCCCCCn1nnc(-c2n[nH]c(=S)n2N)c1-c1n[nH]c(=S)n1N
experimentalTarget: Candida albicans
MIC: 1 µg/mL
